Test system: THRa homodimer (NR concentration 90 nM)
Test: PBM binding z-score (relative to random genomic background probes); higher = stronger binding; sequences stand for … in GC…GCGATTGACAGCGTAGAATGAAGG
measured-quantity: PBM binding z-score
One number for each entry.

Solved cases (10 shown):
TTACCAAGGTGAGCTGAGGTCGATGATCCAACTC
1.6
GCTATTAGTTGAACGGGCAACCGAATGATTCTCG
-0.617
CATACAGGGTCAGCTAGGACAGAGTAGGGACGGC
1.31
CTCGAAAGGTCCTGCTCAGGTGAGTATACCAAAC
0.634
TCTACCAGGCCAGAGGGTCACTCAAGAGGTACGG
0.581
CAAACTAGTTCACAGAGGTCAAAGTCCGTGCGTA
1.93
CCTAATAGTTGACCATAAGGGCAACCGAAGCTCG
0.988
CGTCCAAGGTCAGCAGGTCAATGAAAGCGACGTG
2.46
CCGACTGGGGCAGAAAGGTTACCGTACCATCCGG
-0.556
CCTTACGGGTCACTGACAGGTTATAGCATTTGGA
0.283

Batch of 3 sequences: report PBM binding z-score for each.
1. TGGCAAAGTTCAAAGGTAACGTAAGTATCCACAC
2. CTCGAACGGTCGTGCTCAGGTGAGTATACCAAAC
3. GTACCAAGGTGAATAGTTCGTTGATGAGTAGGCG

Response:
-0.0262
0.536
0.601

Batch of 7 sequences: report PBM binding z-score for each.
1. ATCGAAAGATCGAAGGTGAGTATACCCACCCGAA
2. CTAACAAGGTGAACAAGGTCGTTGATTACTATTC
3. GCATATAGGTACTACAAGGTGAAAGTCCGATTGT
4. AATACCGGGTCACTAGGCCAGAGTAGGTACGAAT
5. GCGACTGGGGCATCAGCAGGATACCATAACTTAA
6. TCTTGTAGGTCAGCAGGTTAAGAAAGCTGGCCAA
7. GCTGCTAAGTCAGGTTGGTCAGCTAACGGGTACG

Response:
1. -0.601
2. 1.84
3. 0.882
4. 0.928
5. -0.673
6. -0.325
7. -0.581

---

Field: PBM binding z-score. Provide a value for each of the sequences that follow.
System: LXRb:RXRa (NR concentration 270 nM, RXRa partner concentration 90 nM)
Assay: PBM binding z-score (relative to random genomic background probes); higher = stronger binding; sequences stand for … in GC…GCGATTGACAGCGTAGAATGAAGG

Solved cases (2 shown):
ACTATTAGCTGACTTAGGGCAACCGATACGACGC
-0.149
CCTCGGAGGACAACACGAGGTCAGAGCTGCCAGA
1.58

Here's the next entry for you.
Request: Return PBM binding z-score (reported value) for this sequence: "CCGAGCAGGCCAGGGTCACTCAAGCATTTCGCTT"
Response: 2.16

---

System: FXR:RXRa (NR concentration 270 nM, RXRa partner concentration 90 nM)
Assay: PBM binding z-score (relative to random genomic background probes); higher = stronger binding; sequences stand for … in GC…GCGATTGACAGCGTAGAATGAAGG
Output true for PBM binding z-score not less than 0.7; output false otherwise.

CCAGACAGGTGAAAGGTAACTTAGTCTGGTACGC
false
TCATATAGGTAAAAGGTGAAGGTCGGTGTGGTAA
true

Request: Reported PBM binding z-score at or above 0.7? "ATCTCTAGGTACAAGTTCAGTGAATCCCGAGGAT"
Response: false

Request: Reported PBM binding z-score at or above 0.7? "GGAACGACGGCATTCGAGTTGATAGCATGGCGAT"
Response: false

Request: Reported PBM binding z-score at or above 0.7? "GCTGCTAGGTCAGGTTGGACAGCTAACGGGTACG"
Response: true
